Exercise: state measured pIC50 for each of the compounds provided.
# System name: full-length beta-Catenin (Uniprot ID P35222) (Homo sapiens, UniProt P35222)
# Construct: 10 nM full-length beta-Catenin (Uniprot ID P35222)
# Sequence (P35222 whole entry): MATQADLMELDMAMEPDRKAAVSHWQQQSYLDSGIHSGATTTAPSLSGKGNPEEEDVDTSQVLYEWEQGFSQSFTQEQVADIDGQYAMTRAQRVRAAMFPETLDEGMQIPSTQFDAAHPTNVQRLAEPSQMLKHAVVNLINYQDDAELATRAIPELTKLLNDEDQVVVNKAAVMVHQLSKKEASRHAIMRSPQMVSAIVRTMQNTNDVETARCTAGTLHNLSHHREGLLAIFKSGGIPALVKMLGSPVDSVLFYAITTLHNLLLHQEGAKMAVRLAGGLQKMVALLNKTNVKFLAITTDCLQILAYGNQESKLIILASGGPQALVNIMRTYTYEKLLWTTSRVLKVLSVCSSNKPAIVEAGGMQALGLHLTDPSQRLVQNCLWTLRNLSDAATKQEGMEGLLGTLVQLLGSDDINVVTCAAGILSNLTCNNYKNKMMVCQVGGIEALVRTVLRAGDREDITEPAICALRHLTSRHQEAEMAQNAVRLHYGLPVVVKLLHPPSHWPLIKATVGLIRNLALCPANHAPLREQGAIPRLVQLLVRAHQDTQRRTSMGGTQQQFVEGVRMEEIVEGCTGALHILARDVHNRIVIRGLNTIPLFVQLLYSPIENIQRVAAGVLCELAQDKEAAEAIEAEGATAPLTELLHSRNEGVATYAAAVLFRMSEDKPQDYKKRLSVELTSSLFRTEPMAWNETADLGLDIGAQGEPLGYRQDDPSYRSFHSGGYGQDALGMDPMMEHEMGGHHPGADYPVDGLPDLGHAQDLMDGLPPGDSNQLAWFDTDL
# Test details: Fluorescence polarization IC50 (beta-catenin / 5FAM-TCF4 10-53 competition)
# Assay type: binding
# Experimental conditions: read-out: beta-Catenin FP IC50
Remember, pIC50 is on a log scale: it is -log10 of the molar concentration.

For record CC(=O)N1CCC[C@]12CC=CCCCC1(CCCC=CCCCOC(=O)N3CC[C@@](C(=O)N[C@@H](Cc4ccccc4Cl)C(=O)N[C@@H](Cc4csc5ccccc45)C(=O)N[C@@H](CCC(N)=O)C(=O)NCCCCCCN)(C3)NC(=O)[C@H](Cc3ccccc3)NC(=O)[C@H](Cc3ccccc3)NC(=O)[C@H](C)NC(=O)[C@H](C)NC(=O)[C@H](CN(CC(=O)O)CC(F)(F)F)NC(=O)[C@H](CC(=O)O)NC1=O)NC(=O)[C@H](CC(C)(C)C)NC(=O)[C@H](CC(=O)O)NC2=O (stereo partly drawn) [I-1012] the listed pIC50 is 7.22

For record CC(=O)N1CCC[C@]12CC=CCCCC1(CCCC=CCCCOC(=O)N3CC[C@@](C(=O)N[C@@H](Cc4ccsc4)C(=O)N[C@@H](Cc4csc5ccccc45)C(=O)N[C@@H](Cc4c[nH]cn4)C(N)=O)(C3)NC(=O)[C@H](CCO)NC(=O)[C@H](Cc3ccccc3)NC(=O)[C@H](C)NC(=O)[C@H](C)NC(=O)[C@H](CC(=O)O)NC(=O)[C@H](CC(=O)O)NC1=O)NC(=O)[C@H](CC(C)(C)C)NC(=O)[C@H](CC(=O)O)NC2=O (stereo partly drawn) [I-804] the listed pIC50 is 8.30

For record CC(=O)N1CCC[C@]12CC=CCCCC1(CCCC=CCCCCCC[C@@](C)(C(=O)N[C@@H](Cc3ccccc3Cl)C(=O)N[C@@H](Cc3csc4ccccc34)C(=O)N[C@@H](CCO)C(N)=O)NC(=O)[C@H](CCO)NC(=O)[C@H](Cc3ccccc3)NC(=O)[C@H](C)NC(=O)[C@H](C)NC(=O)[C@H](CN(CC(=O)O)CC(F)(F)F)NC(=O)[C@H](CC(=O)O)NC1=O)NC(=O)[C@H](CC(C)(C)C)NC(=O)[C@H](CC(=O)O)NC2=O (stereo partly drawn) [I-1000] the listed pIC50 is 7.74
